SYSTEM: T1, Recombinant in-house Human FcRn protein (human, UniProt P55899 24-297; P61769 21-119)
T1 construct: also called HuFcRn; huFcRn
T1 sequence (P55899 24-297 limits assumed, chain 1 of 2): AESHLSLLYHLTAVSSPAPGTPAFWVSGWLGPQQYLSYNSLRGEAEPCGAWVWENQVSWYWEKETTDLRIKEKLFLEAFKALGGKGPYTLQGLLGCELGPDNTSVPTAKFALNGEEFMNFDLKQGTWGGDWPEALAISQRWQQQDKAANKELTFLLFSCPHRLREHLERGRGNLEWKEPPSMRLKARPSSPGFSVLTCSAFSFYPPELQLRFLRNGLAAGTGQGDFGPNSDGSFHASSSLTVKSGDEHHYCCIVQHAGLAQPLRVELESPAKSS
T1 sequence (P61769 21-119 limits assumed, chain 2 of 2): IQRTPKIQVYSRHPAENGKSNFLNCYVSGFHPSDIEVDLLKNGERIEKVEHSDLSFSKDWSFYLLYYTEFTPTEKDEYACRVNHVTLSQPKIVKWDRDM
METHOD SUMMARY: competition ELISA, huFcRn coated, pH 6.0, competitor biotinylated human IgG1; reference PAL02-0002
TEST READOUT: IC50 as a ratio to Efgartigimod

>  <BINDER>
Construct 1 PAL02-0195 (IgG1 Fc_M252Y/S254T/T256E/M428L/H433K/N434F) (other, Fc fragment variant) DKTHTCPPCPAPELLGGPSVFLFPPKPKDTLYITREPEVTCVVVDVSHEDPEVKFNWYVDGVEVHNAKTKPREEQYNSTYRVVSVLTVLHQDWLNGKEYKCKVSNKALPAPIEKTISKAKGQPREPQVYTLPPSRDELTKNQVSLTCLVKGFYPSDIAVEWESNGQPENNYKTTPPVLDSDGSFFLYSKLTVDKSRWQQGNVFSCSVLHEALKFHYTQKSLSLSPG

>  <RESULT>
~0.5 ratio

$$$$
